Entries annotated with measured melting point

Illustrative cases are given below, each with its answer.
INSERT INTO measurements (smilesdata, endpointvalue) VALUES
  ('N#Cc1ccc(C(=O)c2ccc(Nc3nccc(-c4cnc5ccccn45)n3)cc2)cc1', '> 230 °C (dec.)'),
  ('O=C(c1ccccc1)c1cccc(Nc2nccc(-c3cnc4ccccn34)n2)c1', '237 to 246 °C (dec.)');

Read the next record carefully.
Query string: melting point for `O=C(c1ccccc1)c1ccc(Nc2nccc(-c3cnc4ccccn34)n2)cc1` ?
Result string: 249 to 255 °C (dec.)

###

Entries annotated with measured melting point

Illustrative cases are given below, each with its answer.
INSERT INTO assay_data (compound, endpointvalue) VALUES
  ('O=C(c1ccc(Nc2nccc(-c3cnc4ccccn34)n2)cc1)c1ccc(N2CCOCC2)cc1', '> 237 °C (dec.)'),
  ('O=C(c1ccc(Nc2nccc(-c3cnc4ccccn34)n2)cc1)c1ccc2cc[nH]c2c1', '173 to 178 °C (dec.)'),
  ('Cc1ccc(C(=O)c2ccc(Nc3nccc(-c4cnc5ccccn45)n3)cc2)cc1', '238.9 to 239.2 °C'),
  ('CCOc1cccc(C(=O)c2ccc(Nc3nccc(-c4cnc5ccccn45)n3)cc2)c1', '197.3 to 197.5 °C'),
  ('OC(c1ccccc1)c1ccc(Nc2nccc(-c3cnc4ccccn34)n2)cc1 (racemic)', '213 to 216 °C'),
  ('O=C(Cc1ccccc1)c1ccc(Nc2nccc(-c3cnc4ccccn34)n2)cc1', '225 to 228 °C (dec.)');

Query string: melting point for `O=C(c1ccc(Nc2nccc(-c3cnc4ccccn34)n2)cc1)c1nccs1` ?
Result string: 234 to 235 °C (dec.)

Query string: What do you have for `O=C(c1ccc(Nc2nccc(-c3cnc4ccccn34)n2)cc1)c1cccc(Cl)c1` ?
Result string: 194.7 to 196.7 °C

The measurements presented in this section are drawn from patent US7345050B2.
